The reader will find reported RRM1 gene expression vs control cells with no drug treatment values listed item by item below.
# System: Panc-1 cell line
# assay.notes: Gene expression profile using RTQ-PCR
# Type: cell-based
# conditions.used: Panc1, RTQ-PCR
Your answer is read as log 2 fold ratio, so omit the unit and give the number.

// solved cases for RRM1 gene expression vs control cells with no drug treatment follow
{"columns": ["compound", "endpoint.result"],
 "data": [
  ["CN1CC[C@@H](c2c(O)cc(O)c3c(=O)cc(-c4ccccc4Cl)oc23)[C@@H]1CO.Cl", 0.18],
  ["CC[C@H](CO)Nc1nc(NCc2ccccc2)c2ncn(C(C)C)c2n1 [drawing 11]", 0.11],
  ["Nc1ccn([C@@H]2O[C@H](CO)[C@@H](O)C2(F)F)c(=O)n1 [drawing 10]", 0.25],
  ["CN1CCC(c2c(O)cc(O)c3c(=O)cc(-c4ccccc4Cl)oc23)C(O)C1 (centres unmarked) [drawing 14]", 0.03]
]}

Continue with the compound presented below.
Please report RRM1 gene expression vs control cells with no drug treatment with Panc-1 cell line for item CN1CC[C@@H](c2c(O)cc(O)c3c(=O)cc(-c4ccc(C(F)(F)F)cc4Cl)oc23)[C@@H]1CO.Cl [drawing 12] .
−0.24
